Provenance of the data: patent US20250223281A1

- Target Entity: GPR40 (Homo sapiens, UniProt O14842)
- Construct: expressed in transfected cells; host or cells: HEK293 cells stably expressing GPR40 (Hygromycin selection)
- Sequence (O14842 whole entry): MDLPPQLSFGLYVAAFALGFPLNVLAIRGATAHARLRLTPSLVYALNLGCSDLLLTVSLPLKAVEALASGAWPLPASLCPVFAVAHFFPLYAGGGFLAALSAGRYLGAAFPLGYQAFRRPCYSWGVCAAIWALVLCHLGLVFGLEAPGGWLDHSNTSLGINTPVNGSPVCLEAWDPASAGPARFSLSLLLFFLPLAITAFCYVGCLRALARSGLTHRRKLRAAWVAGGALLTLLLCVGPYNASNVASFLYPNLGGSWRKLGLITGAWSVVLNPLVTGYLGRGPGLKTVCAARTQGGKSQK
- Assay Details: IP1 accumulation assay in HEK293 cells stably expressing GPR40
- Assay type: cell-based
- Run Conditions: Tables A-1a to A-7b (structure-property relationship); obtained by methods of Biological Example 1
Measurement Label: EC50 (pM)
Answer in pM, number only, no unit symbol.

COc1ccc(C(=O)N(CC(C)(C)CCCCCCn2cc(CCCCCCCCCCC(=O)NCC[N+](C)(CCC(=O)NCCN)CCC(=O)NCCN)nn2)c2cccc(C)n2)c(N2CCC(COc3cc([C@@H](CC(=O)O)C4CC4)ccn3)CC2)c1
1710

Consider the additional molecule presented here.
Noted for `COc1ccc(C(=O)N(CC(C)(C)CCCCCCn2cc(CCCCCCCCCCCCCC(=O)NCC[N+](C)(CCC(=O)NCCN)CCC(=O)NCCN)nn2)c2cccc(C)n2)c(N2CCC(COc3cc([C@@H](CC(=O)O)C4CC4)ccn3)CC2)c1` : its EC50 reads 50

----------
Listing: log10 of EC50 of selected compounds
- Target Entity: GPR40 (Homo sapiens, UniProt O14842)
- Construct: expressed in transfected cells; host or cells: HEK293 cells stably expressing GPR40 (Hygromycin selection)
- Assay Details: IP1 accumulation assay in HEK293 cells stably expressing GPR40
- Assay type: cell-based
- Run Conditions: IP1 accumulation, HEK293 cells stably expressing GPR40, 2 hours at 37° C., % effect relative to AMG-1638; table of Biological Example 1
Base-10 log of EC50, unit nM.

COc1ccc(C(=O)N(CC(C)(C)CCn2cc(CCCCCCCCC(=O)NCCN(CCC(=O)NCCN)CCC(=O)NCCN)nn2)c2cccc(C)n2)c(N2CCC(COc3cc([C@@H](CC(=O)O)C4CC4)ccn3)CC2)c1
2.79

Consider the additional compound presented here.
Noted for `C[C@H](C(=O)O)[C@H](c1ccc2c(c1)O[C@@H](C1CCN(Cc3cc(-n4cc(CCCCCCCCCCCCCCCC(=O)NCC[N+](C)(CCC(=O)NCCN)CCC(=O)NCCN)nn4)ccc3OC(F)(F)F)CC1)CC2)C1CC1` : its log10 of EC50 reads -1.52

----------
- Target Entity: GPR40 (Homo sapiens, UniProt O14842)
- Construct: expressed in transfected cells; host or cells: HEK293 cells stably expressing GPR40 (Hygromycin selection)
- Assay Details: IP1 accumulation assay in HEK293 cells stably expressing GPR40
- Assay type: cell-based
- Run Conditions: Tables A-1a to A-7b (structure-property relationship); obtained by methods of Biological Example 1
Measurement Label: pEC50
# pEC50 is unitless: minus log10 of the molar concentration; print number only

Noted for `COc1ccc(F)c(-c2ccc(COc3cccc([C@@H](CC(=O)O)C4CC4)c3)cc2CC(C)(C)Cn2cc(CCCCCCCCCCCCCCC(=O)NCCN(CCC(=O)NCCN)CCC(=O)NCCN)nn2)c1` : its pEC50 reads 7.70

Noted for `COc1ccc(F)c(-c2ccc(COc3cccc([C@@H](CC(=O)O)C4CC4)c3)cc2CC(C)(C)Cn2cc(CCCCCCCCCCCCC(=O)NCCN(CCC(=O)NCCN)CCC(=O)NCCN)nn2)c1` : its pEC50 reads 6.34

Noted for `COc1ccc(F)c(-c2ccc(COc3cccc([C@@H](CC(=O)O)C4CC4)c3)cc2CC(C)(C)Cc2cn(CCCCCCCCCCCCCC(=O)NCCN(CCC(=O)NCCN)CCC(=O)NCCN)nn2)c1` : its pEC50 reads 7.31

Noted for `C[C@H](C(=O)O)[C@H](c1ccc2c(c1)O[C@@H](C1CCN(Cc3cc(-n4cc(CCCCCCCCCCCCCCCCCC(=O)NCC[N+](C)(CCC(=O)NCCN)CCC(=O)NCCN)nn4)ccc3OC(F)(F)F)CC1)CC2)C1CC1` : its pEC50 reads 9.51

Noted for `COc1ccc(F)c(-c2ccc(COc3cccc([C@@H](CC(=O)O)C4CC4)c3)cc2CC(C)(C)Cc2cn(CCCCCCCCCCCCCCC(=O)NCCN(CCC(=O)NCCN)CCC(=O)NCCN)nn2)c1` : its pEC50 reads 7.59

Noted for `C[C@H](C(=O)O)[C@H](c1ccc2c(c1)O[C@@H](C1CCN(Cc3cc(-c4cn(CCCCCCCCCCCC(=O)NCCN(CCC(=O)NCCN)CCC(=O)NCCN)nn4)ccc3OC(F)(F)F)CC1)CC2)C1CC1` : its pEC50 reads 6.39

Noted for `C[C@H](C(=O)O)[C@H](c1ccc2c(c1)O[C@@H](C1CCN(Cc3cc(-c4cn(CCCCCCCCCCCCCCCCCC(=O)NCCN(CCC(=O)NCCN)CCC(=O)NCCN)nn4)ccc3OC(F)(F)F)CC1)CC2)C1CC1` : its pEC50 reads 8.92
